system: COLO 205 colorectal tumor cells; assay: Tumor cell viability inhibition assay (CellTiter-Glo 2.0, 72 hours); format: cell-based; conditions: Homo sapiens, COLO 205, 72 h, COLO 205 cell viability
reported_metric: IC50

1. Cc1cc(-c2cc(Cl)ccc2OCCn2c(C)nc3c(c2=O)C[C@H](N2CCC4(CC2)CC(F)(F)CO4)CC3)c2scc(C(=O)O)c2n1 (single isomer, unassigned) [Compound 489] | < 5 µM
2. Cc1cc(-c2cc(Cl)ccc2OCCn2c(C)nc3c(c2=O)C[C@H](N(C)[C@H]2CC[C@@](C)(O)CC2)CC3)c2scc(C(=O)O)c2n1 (single isomer, unassigned) [Compound 224] | > 20 µM

Req: # return recorded IC50 for input Cc1cc(-c2cc(Cl)ccc2OCCn2c(C)nc3c(c2=O)CC(N(C)Cc2ccncc2)CC3)c2scc(C(=O)O)c2n1 (stereo not drawn) [Compound 16]
Resp: < 5 µM

Req: # return recorded IC50 for input Cc1cc(-c2cc(Cl)ccc2OCCn2c(C)nc3c(c2=O)CC(N)CC3)c2scc(C(=O)O)c2n1 (stereo not drawn) [Compound 411]
Resp: < 5 µM

Req: # return recorded IC50 for input Cc1cc(-c2cc(Cl)ccc2OCCn2c(C)nc3c(c2=O)C[C@@H](N2CCC[C@H](C(F)F)C2)CC3)c2scc(C(=O)O)c2n1 (single isomer, unassigned) [Compound 101]
Resp: < 5 µM

Req: # return recorded IC50 for input COC1CCN(C2CCc3nc(C)n(CCOc4ccc(Cl)cc4-c4cc(C)nc5c(C(N)=O)csc45)c(=O)c3C2)CC1 (stereo not drawn) [Compound 133]
Resp: 5 to 20 µM

====

system: COLO 205 colorectal tumor cells; test: Tumor cell viability inhibition assay (CellTiter-Glo 2.0, 72 hours); type: cell-based; settings: Homo sapiens, COLO 205, 72 h, COLO 205 cell viability
pIC50: −log10 of the molar value.
Quick list: pIC50 per entry.

Some compounds with recorded pIC50:
1) CO[C@@H]1CCN([C@@H]2CCc3nc(C)n(CCOc4ccc(Cl)cc4-c4cc(C)nc5c(C(=O)O)csc45)c(=O)c3C2)CC12CC2 (single isomer, unassigned) | < 4.70
2) Cc1cc(-c2cc(Cl)ccc2OCCn2c(C)nc3c(c2=O)CC(N(CC(F)(F)F)C2CCC2)CC3)c2scc(C(=O)O)c2n1 (stereo not drawn) | 4.70 to 5.30
3) Cc1cc(-c2cc(Cl)ccc2OCCn2c(C)nc3c(c2=O)C[C@H](N2C[C@@H]4CC(F)(F)[C@@H]4C2)CC3)c2scc(C(=O)O)c2n1 (single isomer, unassigned) | > 5.30
4) Cc1cc(-c2cc(Cl)ccc2OCCn2c(C)nc3c(c2=O)C[C@@H](N2CCC4(CC2)CC4(F)F)CC32CC2)c2scc(C(=O)O)c2n1 (single isomer, unassigned) | > 5.30
5) Cc1cc(-c2cc(Cl)ccc2OCCn2c(C)nc3c(c2=O)CC2(CC3)CN(C3CC3)C2)c2scc(C(=O)O)c2n1 | 4.70 to 5.30

Req: # return recorded pIC50 for input COC1CCN([C@H]2CCc3nc(C)n(CCOc4ccc(Cl)cc4-c4cc(C)nc5c(C(=O)O)csc45)c(=O)c3[C@H]2C)CC1 (stereo in doubt)
Resp: 4.70 to 5.30
